system: rodent lifetime carcinogenesis bioassay, tumor incidence TD50; test: carcinogenic potency in animals, long-term in vivo studies, CPDB compilation (AID 1745844); conditions: rat; strain Fischer 344; females; in feed; site: pancreatic islets; lesion: islet-cell carcinoma; dosed 103 weeks; study length 104 weeks
READOUT LABEL: TD50

>>> df
                        compound_string  endpoint_result
0  Nc1ccc(N)c2c1C(=O)c1c(N)ccc(N)c1C2=O    291 mg/kg/day

---

system: rodent lifetime carcinogenesis bioassay, tumor incidence TD50; assay: carcinogenic potency in animals, long-term in vivo studies, CPDB compilation (AID 1745844); details: mouse; strain Swiss albino; females; in drinking water; site: lung; lesion: several types; types named in the paper; dosed 75 weeks; study length 79 weeks
READOUT LABEL: TD50

>>> print(df.to_string())
   compound_string  endpoint_result
0       CCCN(N)C=O   8.74 mg/kg/day

---

system: rodent lifetime carcinogenesis bioassay, tumor incidence TD50; assay: carcinogenic potency in animals, long-term in vivo studies, CPDB compilation (AID 1745844); settings: rat; strain Fischer 344; males; by gavage; site: stomach; lesion: squamous-cell carcinoma + squamous-cell papilloma; dosed 93 weeks; study length 104 weeks
READOUT LABEL: TD50

   compound_string                          target_or_system  endpoint_result
0      ClCc1cccnc1  rodent lifetime carcinogenesis bioassay, tumor incidence TD50    433 mg/kg/day

---

test system: rodent lifetime carcinogenesis bioassay, tumor incidence TD50; experiment: carcinogenic potency in animals, long-term in vivo studies, CPDB compilation (AID 1745844); conditions: rat; strain Fischer 344; males; in feed; site: any site (literature study); lesion: several types; types named in the paper; dosed 104 weeks; study length 109 weeks
READOUT LABEL: TD50 (mg/kg/day)

In [3]: df
Out[3]:
     compound_string                          target_or_system  endpoint_result
0  NCCCCCCCCCCC(=O)O  rodent lifetime carcinogenesis bioassay, tumor incidence TD50              802

---

system: rodent lifetime carcinogenesis bioassay, tumor incidence TD50; experiment: carcinogenic potency in animals, long-term in vivo studies, CPDB compilation (AID 1745844); conditions: mouse; strain B6C3F1; males; by gavage; site: abdominal cavity + liver + mesenteric lymph node + pancreas + spleen + subcutaneous tissue; lesion: hemangioma + hemangiosarcoma; dosed 103 weeks; study length 105 weeks
Active and inactive are the calls of the source. No rule for the calls is given here.
READOUT LABEL: TD50

            compound_string           endpoint_result
0  Nc1cc([N+](=O)[O-])ccc1O  798 mg/kg/day (inactive)

---

system: rodent lifetime carcinogenesis bioassay, tumor incidence TD50; assay: carcinogenic potency in animals, long-term in vivo studies, CPDB compilation (AID 1745844); conditions: rat; strain Fischer 344; males; in drinking water; site: skin; lesion: squamous-cell carcinoma + squamous-cell papilloma; dosed 58 weeks; study length 60 weeks
READOUT LABEL: TD50

>>> print(df.to_string())
               compound_string  endpoint_result
0  Cc1cc(-c2ccc(N)c(C)c2)ccc1N   1.55 mg/kg/day

---

tested on: rodent lifetime carcinogenesis bioassay, tumor incidence TD50; test: carcinogenic potency in animals, long-term in vivo studies, CPDB compilation (AID 1745844); details: rat; strain Osborne-Mendel; males; in feed; site: liver; lesion: hepatocellular adenoma + hepatocellular carcinoma + neoplastic nodule; dosed 80 weeks; study length 109 weeks
READOUT LABEL: TD50

                                   molecule  readout_label  endpoint_result
0  O=C1C2(Cl)C3(Cl)C4(Cl)C(Cl)(Cl)C5(Cl)C3(Cl)C1(Cl)C5(Cl)C24Cl (stereo unspecified)           TD50   2.49 mg/kg/day
